Every entry's value here was drawn from patent US20220370416A1.

target_or_test_system: HiBit-KRAS^G12C (Homo sapiens, UniProt P01116, G12C)
Sequence (P01116 1-186 isoform P01116-2 G12C limits assumed): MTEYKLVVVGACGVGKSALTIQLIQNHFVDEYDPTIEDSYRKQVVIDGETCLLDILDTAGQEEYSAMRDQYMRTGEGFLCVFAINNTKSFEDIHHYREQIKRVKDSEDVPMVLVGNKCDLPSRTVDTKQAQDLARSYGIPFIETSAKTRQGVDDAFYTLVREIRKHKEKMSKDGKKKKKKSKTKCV
procedure_text: HiBit degradation assay in MiaPaCa-2 HiBit-KRas^G12C cells
Format: cell-based
cond: MIA PaCa-2, MiaPaCa-2 HiBit-KRas^G12C cells; 0.1% DMSO; 24 hours; maximum degradation; read-out: KRas^G12C-HiBiT (MiaPaCa; 0.1% DMSO) DMax
quantity_name: Dmax

Q. State, in one line, measured Dmax of `C=CC(=O)N1CCN(c2nc(O[C@H](C)CN3CCC(OCCOCC(=O)N[C@H](C(=O)N4C[C@H](O)C[C@H]4C(=O)N[C@@H](C)c4ccc(-c5scnc5C)cc4)C(C)(C)C)CC3)nc3c(F)c(-c4cc(O)cc5ccccc45)c(Cl)cc23)[C@@H](C)C1`
A. < 35%

Q. Return value of Dmax for input `C=CC(=O)N1CCN(c2nc(O[C@H](C)CN3CCC(OCCOCC(=O)N[C@H](C(=O)N4C[C@H](O)C[C@H]4C(=O)N[C@@H](C)c4ccc(-c5scnc5C)cc4)C(C)(C)C)CC3)nc3c(F)c(-c4cc(O)cc5ccccc45)c(Cl)cc23)C[C@@H]1CC#N` , no commentary.
A. 35 to 70%

Q. Answer with the recorded Dmax of `C=CC(=O)N1CCN(c2nc(O[C@H](C)CN3CCC(OCC(=O)N[C@H](C(=O)N4C[C@H](O)C[C@H]4C(=O)N[C@@H](C)c4ccc(-c5scnc5C)cc4)C(C)(C)C)CC3)nc3c(F)c(-c4cc(O)cc5ccccc45)c(Cl)cc23)CC1` only.
A. 35 to 70%

Q. Name the recorded Dmax of the molecule listed here: `C=CC(=O)N1CCN(c2nc(O[C@@H](C)CN3CCC(OCCOCC(=O)N[C@H](C(=O)N4C[C@H](O)C[C@H]4C(=O)N[C@@H](C)c4ccc(-c5scnc5C)cc4)C(C)(C)C)CC3)nc3c(F)c(-c4cc(O)cc5ccccc45)c(Cl)cc23)CC1`
A. 35 to 70%
